- METHOD: in vitro
- REPORTED_CONDITIONS: rat, microsomes, pH 7.4
*1 amine or outer side, *2 acyl side, *3 side chain or, on linkers, in order; H or OH if unused. Where a SMILES comes first, the peptide text is derived from it. [ ]: non-standard residue; d: D form. Gly(N-4-hydroxybenzyl) = O=C(O)CNCc1ccc(O)cc1; X1 = O=C(CN(Cc1ccc(C(F)(F)F)cc1)[*:1])[*:2]; Gly(N-cPent) = O=C(O)CNC1CCCC1; Gly(NCH2cPr) = O=C(O)CNCC1CC1; Nphe = O=C(O)CNCc1ccccc1
Each record here notes measured remaining at 0.5 h, 1 μM.
Response body: numeric value in %, unit text excluded.

Recorded remaining at 0.5 h, 1 μM of NCC(=O)N(CC(=O)N(CC(=O)N(CC(=O)N(CC(N)=O)Cc1ccc(C(F)(F)F)cc1)Cc1ccccc1)Cc1ccccc1)C1CCCC1 [DS-47, Ngly-Ncpe-Nbn-Ntfb-Nbn-NH2] (H-G[Gly(N-cPent)][Nphe][Nphe][X1]-NH2) , please. 73

Suppose we examine the molecule NCC(=O)N(CC(=O)N(CC(=O)N(CC(=O)N(CC(N)=O)Cc1ccccc1)Cc1ccc(O)cc1)Cc1ccc(O)cc1)CC1CC1 [DS-31, Ngly-Ncpr-Ntyr-Ntyr-Nbn-NH2] (H-G[Gly(NCH2cPr)][Gly(N-4-hydroxybenzyl)][Gly(N-4-hydroxybenzyl)][Nphe]-NH2) ; what remaining at 0.5 h, 1 μM value has been reported? 83.7

What value of remaining at 0.5 h, 1 μM has been recorded for this entry: NCC(=O)N(CC(=O)N(CC(=O)N(CC(=O)N(CC(N)=O)Cc1ccccc1)Cc1ccc(O)cc1)Cc1ccccc1)C1CCCC1 [DS-25, Ngly-Ncpe-Nbn-Ntyr-Nbn-NH2] (H-G[Gly(N-cPent)][Nphe][Gly(N-4-hydroxybenzyl)][Nphe]-NH2) 80.9

Quick one: remaining at 0.5 h, 1 μM of NCC(=O)N(CC(=O)N(CC(=O)N(CC(=O)N(CC(N)=O)Cc1ccccc1)Cc1ccc(O)cc1)Cc1ccc(O)cc1)C1CCCC1 [DS-16, Ngly-Ncpe-Ntyr-Ntyr-Nbn-NH2] (H-G[Gly(N-cPent)][Gly(N-4-hydroxybenzyl)][Gly(N-4-hydroxybenzyl)][Nphe]-NH2) ? 79.8
